Record: pIC50 reported on Nitric oxide synthase 3 (Bos taurus, UniProt P29473).
Sequence (P29473 whole entry): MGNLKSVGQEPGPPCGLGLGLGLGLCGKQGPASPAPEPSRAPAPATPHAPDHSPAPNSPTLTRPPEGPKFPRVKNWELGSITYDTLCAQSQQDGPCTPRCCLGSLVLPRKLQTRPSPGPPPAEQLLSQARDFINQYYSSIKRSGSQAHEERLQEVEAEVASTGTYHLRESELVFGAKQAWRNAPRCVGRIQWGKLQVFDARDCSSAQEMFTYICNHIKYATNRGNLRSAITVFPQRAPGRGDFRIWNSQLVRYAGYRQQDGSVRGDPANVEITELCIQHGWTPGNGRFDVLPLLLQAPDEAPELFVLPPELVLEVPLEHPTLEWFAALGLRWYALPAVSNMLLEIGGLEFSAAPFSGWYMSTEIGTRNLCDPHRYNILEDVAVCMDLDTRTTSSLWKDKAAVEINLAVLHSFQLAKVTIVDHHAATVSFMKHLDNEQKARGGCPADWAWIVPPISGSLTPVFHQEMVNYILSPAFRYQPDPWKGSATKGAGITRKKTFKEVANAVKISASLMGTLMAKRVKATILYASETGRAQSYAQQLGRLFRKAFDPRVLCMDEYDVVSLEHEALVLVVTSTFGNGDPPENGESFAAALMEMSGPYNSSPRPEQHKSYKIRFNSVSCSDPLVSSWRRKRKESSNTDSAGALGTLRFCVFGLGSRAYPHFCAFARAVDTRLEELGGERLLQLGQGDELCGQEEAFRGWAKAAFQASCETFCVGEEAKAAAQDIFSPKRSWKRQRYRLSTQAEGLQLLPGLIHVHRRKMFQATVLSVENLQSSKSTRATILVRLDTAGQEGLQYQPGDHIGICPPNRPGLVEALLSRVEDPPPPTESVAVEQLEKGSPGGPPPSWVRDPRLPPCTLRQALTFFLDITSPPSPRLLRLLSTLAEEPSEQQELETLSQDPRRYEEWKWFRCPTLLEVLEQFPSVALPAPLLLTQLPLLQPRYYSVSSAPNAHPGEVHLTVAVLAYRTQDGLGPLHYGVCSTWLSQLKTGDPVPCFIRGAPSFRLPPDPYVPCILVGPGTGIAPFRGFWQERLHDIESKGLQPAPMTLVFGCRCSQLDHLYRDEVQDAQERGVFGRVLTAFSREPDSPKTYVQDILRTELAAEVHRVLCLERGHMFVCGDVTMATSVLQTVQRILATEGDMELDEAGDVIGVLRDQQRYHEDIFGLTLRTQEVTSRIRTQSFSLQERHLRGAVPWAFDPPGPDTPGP
Please treat pIC50 as minus the base-10 logarithm of the molar concentration.

compound | pIC50
CC(=N)N[C@@H](C)c1ccccc1 | 3.52
COc1cccc(CNC(C)=N)c1 | 4.00
CC(=N)NC(c1ccccc1)c1ccccc1 | 3.46

Now take the following compound into account.
Request: Would you mind telling me what pIC50 value was observed for CCC(NC(C)=N)c1ccccc1 (racemic) ?
Result: 4.10

====

Listing: Ratio IC50 of selected molecules
assay.protocol: Selectivity ratio, ratio of IC50 for bovine eNOS to IC50 for rat brain nNOS
// keep it numeric: no unit symbol after the value

molecule | observed
CC(=N)NCc1ccccc1 | 2.3
CCC(NC(C)=N)c1ccccc1 (racemic) | 0.9
Cc1nccn1Cc1ccccc1 | 18
CC(=N)N[C@@H](C)c1ccccc1 | 2
CC(=N)NCc1ccc2c(c1)OCO2 | 1
CC(=N)NC(c1ccccc1)C(C)C (racemic) | 500
CC(=N)NC(c1ccccc1)c1ccccc1 | 1170
COc1cccc(CNC(C)=N)c1 | 10
Cc1nccn1C(C)c1ccccc1 (racemic) [EFETOZOLE] | 16

Could you now consider this next molecule?
Request: Need Ratio IC50 of Cc1nccn1Cc1ccncc1 , thanks.
Result: 20

====

assayed.target: Nitric oxide synthase, inducible (Mus musculus)
Sequence (P29477 whole entry): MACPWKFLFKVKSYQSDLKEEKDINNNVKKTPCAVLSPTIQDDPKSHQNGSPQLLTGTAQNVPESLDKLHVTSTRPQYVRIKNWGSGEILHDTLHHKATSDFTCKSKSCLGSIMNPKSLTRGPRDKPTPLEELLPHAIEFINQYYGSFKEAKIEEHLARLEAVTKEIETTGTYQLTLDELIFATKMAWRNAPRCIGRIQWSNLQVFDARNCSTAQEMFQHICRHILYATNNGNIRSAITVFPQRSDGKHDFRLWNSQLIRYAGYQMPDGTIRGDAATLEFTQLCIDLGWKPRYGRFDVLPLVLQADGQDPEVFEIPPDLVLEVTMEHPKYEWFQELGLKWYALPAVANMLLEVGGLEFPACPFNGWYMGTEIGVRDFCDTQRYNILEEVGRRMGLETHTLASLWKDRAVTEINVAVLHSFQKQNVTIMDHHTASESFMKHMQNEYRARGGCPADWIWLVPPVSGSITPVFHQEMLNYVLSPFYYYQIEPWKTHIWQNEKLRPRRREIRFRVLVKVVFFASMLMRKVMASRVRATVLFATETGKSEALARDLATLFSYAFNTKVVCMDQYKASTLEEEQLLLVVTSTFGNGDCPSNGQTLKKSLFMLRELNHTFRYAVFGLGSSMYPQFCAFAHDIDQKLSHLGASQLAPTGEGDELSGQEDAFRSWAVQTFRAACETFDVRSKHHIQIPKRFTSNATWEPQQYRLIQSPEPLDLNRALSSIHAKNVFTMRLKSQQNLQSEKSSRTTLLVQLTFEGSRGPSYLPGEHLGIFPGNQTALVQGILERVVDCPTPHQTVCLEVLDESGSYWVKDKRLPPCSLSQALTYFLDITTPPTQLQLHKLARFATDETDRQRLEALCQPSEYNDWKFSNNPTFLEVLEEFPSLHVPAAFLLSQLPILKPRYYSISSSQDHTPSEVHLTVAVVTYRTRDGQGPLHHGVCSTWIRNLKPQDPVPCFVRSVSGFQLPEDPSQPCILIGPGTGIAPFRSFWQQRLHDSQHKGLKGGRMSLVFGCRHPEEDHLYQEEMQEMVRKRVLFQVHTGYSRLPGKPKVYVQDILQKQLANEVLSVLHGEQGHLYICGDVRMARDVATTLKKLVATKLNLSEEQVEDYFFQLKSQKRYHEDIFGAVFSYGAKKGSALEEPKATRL
test.readout: IC50 (µM)
State just the number; it will be interpreted in µM.

compound | test.readout | observed
CC(=N)NCc1ccccc1 | IC50 | 0.2

Request: Can you share its IC50? I mean this compound: Cc1nccn1C(C)c1ccccc1 (racemic) [EFETOZOLE]
Result: 100

====

assayed.target: Nitric oxide synthase 1 (Rattus norvegicus)
Sequence (P29476 whole entry): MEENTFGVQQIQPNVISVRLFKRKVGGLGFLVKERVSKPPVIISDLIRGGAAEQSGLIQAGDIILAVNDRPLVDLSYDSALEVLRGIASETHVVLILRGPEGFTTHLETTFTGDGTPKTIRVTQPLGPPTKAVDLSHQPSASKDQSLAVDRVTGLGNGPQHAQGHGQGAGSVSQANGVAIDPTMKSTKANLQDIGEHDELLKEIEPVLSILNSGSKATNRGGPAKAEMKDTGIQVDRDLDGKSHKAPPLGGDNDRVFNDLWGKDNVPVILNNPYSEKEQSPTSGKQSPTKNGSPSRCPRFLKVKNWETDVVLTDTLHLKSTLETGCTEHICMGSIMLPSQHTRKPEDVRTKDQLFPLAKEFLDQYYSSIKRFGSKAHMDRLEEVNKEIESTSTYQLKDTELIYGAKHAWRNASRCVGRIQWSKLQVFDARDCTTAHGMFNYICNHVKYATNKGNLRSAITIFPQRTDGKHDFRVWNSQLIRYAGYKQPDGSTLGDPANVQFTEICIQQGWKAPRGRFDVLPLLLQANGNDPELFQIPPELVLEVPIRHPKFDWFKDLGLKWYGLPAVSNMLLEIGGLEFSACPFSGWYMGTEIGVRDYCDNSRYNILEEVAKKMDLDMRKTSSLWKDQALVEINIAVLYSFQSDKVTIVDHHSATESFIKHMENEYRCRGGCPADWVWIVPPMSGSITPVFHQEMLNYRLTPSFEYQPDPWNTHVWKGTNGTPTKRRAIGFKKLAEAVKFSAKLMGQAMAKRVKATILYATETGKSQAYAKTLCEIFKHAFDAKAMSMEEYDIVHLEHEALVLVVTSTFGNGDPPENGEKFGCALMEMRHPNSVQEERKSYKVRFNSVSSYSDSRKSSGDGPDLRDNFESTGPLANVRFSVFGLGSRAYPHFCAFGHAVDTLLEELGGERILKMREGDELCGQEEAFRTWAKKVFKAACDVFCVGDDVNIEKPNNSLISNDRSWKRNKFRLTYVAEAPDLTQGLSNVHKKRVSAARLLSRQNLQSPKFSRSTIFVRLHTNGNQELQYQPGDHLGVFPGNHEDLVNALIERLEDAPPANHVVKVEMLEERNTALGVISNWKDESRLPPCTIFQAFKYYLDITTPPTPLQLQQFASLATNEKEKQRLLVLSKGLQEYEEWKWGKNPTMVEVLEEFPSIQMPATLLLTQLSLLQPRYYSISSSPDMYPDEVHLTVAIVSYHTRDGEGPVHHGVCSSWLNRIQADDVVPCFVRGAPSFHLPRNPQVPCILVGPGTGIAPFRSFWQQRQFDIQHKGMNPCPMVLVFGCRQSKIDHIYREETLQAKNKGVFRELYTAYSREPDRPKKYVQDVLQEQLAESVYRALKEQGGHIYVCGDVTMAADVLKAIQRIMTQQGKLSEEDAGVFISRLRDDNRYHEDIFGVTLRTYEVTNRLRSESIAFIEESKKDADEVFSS
assay.protocol: Inhibition of rat brain nNOS assessed as nitric oxide mediated oxidation of oxyhemoglobin to methemoglobin
Each entry below carries its recorded pIC50.
The scale used: pIC50 is minus the common logarithm of the concentration in molar units.

compound | assayed.target | pIC50
Cc1nccn1Cc1ccncc1 | Nitric oxide synthase 1 (Rattus norvegicus) | 5.30
CCC(NC(C)=N)c1ccccc1 (racemic) | Nitric oxide synthase 1 (Rattus norvegicus) | 4.05
Cc1nccn1C(C)c1ccccc1 (racemic) | Nitric oxide synthase 1 (Rattus norvegicus) | 5.30

Request: Form: Entry = CC(=N)NC(c1ccccc1)C(C)C (racemic) | System = Nitric oxide synthase 1 (Rattus norvegicus) | pIC50 = ____
Result: 6.70

====

assay.protocol: Selectivity ratio, ratio of IC50 for mouse macrophage iNOS to IC50 for rat brain nNOS
Classification by Ratio IC50 follows these ranges: one: < 2; two: ≥ 2 and < 10; three: ≥ 10

Below are worked cases with known answers.
compound | assigned.label
CC(=N)NCc1ccccc1 | one
CC(=N)NC(c1ccccc1)C(C)C (racemic) | three
COc1cccc(CNC(C)=N)c1 | two

Request: Form field 'band' for Cc1nccn1Cc1ccncc1
Result: two

Request: Quick check: band for Cc1nccn1C(C)c1ccccc1 (racemic) [EFETOZOLE]
Result: three

Request: Which category fits this record: CC(=N)N[C@@H](C)c1ccccc1
Result: one

Request: Band assignment needed for CC(=N)NC(c1ccccc1)c1ccccc1 please.
Result: three

Request: Form: Item = CCC(NC(C)=N)c1ccccc1 (racemic) ; Class = ?
Result: one

====

In this section, each of the compounds is paired with its reported IC50.
assayed.target: Nitric oxide synthase, inducible (Mus musculus, UniProt P29477)
Sequence (P29477 whole entry): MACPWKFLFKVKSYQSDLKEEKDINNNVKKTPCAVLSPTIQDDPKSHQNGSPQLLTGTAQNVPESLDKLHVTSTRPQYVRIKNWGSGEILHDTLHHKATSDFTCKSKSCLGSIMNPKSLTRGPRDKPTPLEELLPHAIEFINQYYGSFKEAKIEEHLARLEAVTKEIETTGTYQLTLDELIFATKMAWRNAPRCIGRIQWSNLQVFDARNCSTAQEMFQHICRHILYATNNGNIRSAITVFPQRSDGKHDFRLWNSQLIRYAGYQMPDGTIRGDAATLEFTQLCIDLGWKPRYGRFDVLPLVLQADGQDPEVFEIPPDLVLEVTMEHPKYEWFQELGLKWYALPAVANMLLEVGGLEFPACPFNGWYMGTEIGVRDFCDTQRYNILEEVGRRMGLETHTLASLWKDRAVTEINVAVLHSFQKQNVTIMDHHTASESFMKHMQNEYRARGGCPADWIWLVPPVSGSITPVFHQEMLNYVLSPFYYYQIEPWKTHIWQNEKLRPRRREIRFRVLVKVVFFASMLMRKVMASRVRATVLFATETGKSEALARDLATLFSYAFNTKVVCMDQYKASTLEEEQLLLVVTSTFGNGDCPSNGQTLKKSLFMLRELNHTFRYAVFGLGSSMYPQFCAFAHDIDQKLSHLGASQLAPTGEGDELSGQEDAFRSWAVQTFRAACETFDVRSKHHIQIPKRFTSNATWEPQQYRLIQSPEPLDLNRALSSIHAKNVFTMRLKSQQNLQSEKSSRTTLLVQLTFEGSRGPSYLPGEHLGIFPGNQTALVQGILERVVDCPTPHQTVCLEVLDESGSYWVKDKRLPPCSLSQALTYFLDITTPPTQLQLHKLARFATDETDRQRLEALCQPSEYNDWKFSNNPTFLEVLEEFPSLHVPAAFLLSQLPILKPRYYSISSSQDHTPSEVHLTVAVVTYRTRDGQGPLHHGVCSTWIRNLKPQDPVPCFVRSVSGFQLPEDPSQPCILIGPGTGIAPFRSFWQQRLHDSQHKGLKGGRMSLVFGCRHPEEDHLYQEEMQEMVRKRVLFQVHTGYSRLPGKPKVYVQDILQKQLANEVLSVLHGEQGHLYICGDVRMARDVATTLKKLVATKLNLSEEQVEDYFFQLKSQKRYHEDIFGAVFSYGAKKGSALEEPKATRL
Number in µM, nothing else.

See these solved cases before continuing.
compound | uom | observed
Cc1nccn1Cc1ccccc1 | µM | 50
COc1cccc(CNC(C)=N)c1 | µM | 50
CC(=N)NCc1ccc2c(c1)OCO2 | µM | 800

Now consider a different compound.
Request: Item under review: CCC(NC(C)=N)c1ccccc1 (racemic) . Reported IC50?
Result: 0.25
